Origin of measurements: patent US20210253725A1

I'd be grateful if you could share measured Cellular binding assay [RFU] for these entries.
Target: T1, CD27 expressed on the cell surface (HT1080_CD27 cells) (human, UniProt P26842 20-260)
T1 construct: whole, on cells; also called K562_CD27
T1 sequence (looked up): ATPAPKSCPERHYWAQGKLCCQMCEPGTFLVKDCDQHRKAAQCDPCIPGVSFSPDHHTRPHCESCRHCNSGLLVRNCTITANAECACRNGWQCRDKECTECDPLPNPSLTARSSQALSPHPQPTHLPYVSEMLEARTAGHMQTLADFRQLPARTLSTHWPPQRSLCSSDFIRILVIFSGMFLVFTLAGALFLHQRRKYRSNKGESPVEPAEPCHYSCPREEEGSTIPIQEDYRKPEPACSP
Assay: cellular binding assay, HT1080_CD27 cells; also: test concentration or dose not given here
State the answer as a number, implicitly in RFU.

input: Indicate the recorded Cellular binding assay [RFU] value for this binder: P018.S.07.A.H05 (antibody, V domains shown, V regions on human Ig constant parts; also called AB27_133) VH: QSLEESGGRLVTPGTPLTLTCTASGFSLNSYYINWVRQAPGKGLEWIGFINGYDNTWYASWAKGRFTISRTSTTVDLRITSPTTEDTATYFCARDPGGASGTGRLDLWGQGTLVTVSS VL: DIVMTQTPASVSAAVGGTVTINCQASQSISTALAWYQQKPGQRPKLLIYDASKLASGVPSRFKGNGSGTEFTLTISDLESADAATYYCQCTYYDAYDVGAFGGGTEVVVN
output: 256

input: Indicate the recorded Cellular binding assay [RFU] value for this binder: P018.S.10.A.C06 (antibody, V domains shown, V regions on human Ig constant parts; also called AB27_174) VH: QSLEESGGRLVTPGTPLTLTCTVSGIDLNNNAMTWVRQAPGEGLEWIGIISTADTTTYASWTKGRFTISKTSTTVDLKITSPTTEDTATYFCARAAYFSYGYFNLWGQGTLVTVSS VL: DIVMTQTPASVEAAVGGTVTIKCQASQNIGNALAWYQQKPGQPPKLLIYGASTLASGVPSRFKGSGSGTEFTLTISDLESADATTYFCQSYVYSDGNVFGGGTEVVVK
output: 395

input: Indicate the recorded Cellular binding assay [RFU] value for this binder: P018.S.09.A.E06 (antibody, V domains shown, V regions on human Ig constant parts; also called AB27_156) VH: QSVEESGGRLVTPGTPLTLTCTVSGFSLSSYGMIWVRQAPGKGLEWIAWSSSNDNTYYASWAKGRFTISKTSSTTVDLKMTSLTTEDTATYFCARNGVYSTGNYFDLWGQGTLVTVSS VL: AQVLTQTPSPVSAAVGGTVTINCQASQSVYNNNNLAWYQQKPGQPPKFLIYAASRLPSGVPPRFSGSGSGTQFTLTISDVQSDDAATYYCQGEFDCDSADCFAFGGGTEVVVK
output: 307
